target: MmCLK1 (Mus musculus, UniProt P22518); assay: ADP-Glo kinase assay; format: biochemical, Mus musculus (Mm); details: 1 μM; mean n = 2; % of maximum activity of DMSO control; read-out: % Residual activity at 1 μM CLK1
Sequence (P22518 whole entry): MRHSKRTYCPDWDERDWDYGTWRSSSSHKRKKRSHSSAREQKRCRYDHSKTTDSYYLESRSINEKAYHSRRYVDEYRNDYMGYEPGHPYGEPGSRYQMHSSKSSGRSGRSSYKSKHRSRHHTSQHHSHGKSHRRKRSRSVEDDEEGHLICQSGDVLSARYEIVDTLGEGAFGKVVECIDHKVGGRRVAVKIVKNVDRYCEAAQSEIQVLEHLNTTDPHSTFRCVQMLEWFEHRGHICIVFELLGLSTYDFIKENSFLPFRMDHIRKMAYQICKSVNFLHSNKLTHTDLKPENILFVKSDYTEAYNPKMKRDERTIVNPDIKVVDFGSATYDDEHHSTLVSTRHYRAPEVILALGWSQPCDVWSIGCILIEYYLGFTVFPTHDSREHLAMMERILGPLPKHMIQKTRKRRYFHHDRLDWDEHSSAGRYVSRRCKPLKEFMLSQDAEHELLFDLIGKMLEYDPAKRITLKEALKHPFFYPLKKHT
readoutName: remaining activity at 1 µM (%)
Give your result in % as a bare value.

Look over these answered cases.
structure | remaining activity at 1 µM (%)
O=c1[nH]c2ccc(O)cc2c2c1[nH]c1ccc(F)cc12 | 2
COc1ccc2c(c1)c1c3cc(N(C)C)ccc3[nH]c(=O)c1n2C | 11
COc1ccc2[nH]c3c(=O)[nH]c4ccc(C(F)(F)F)cc4c3c2c1 | 11
COc1ccc2[nH]c3c(=O)[nH]c4cc(O)ccc4c3c2c1 | 11
COc1ccc2[nH]c(=O)c3[nH]c4ccccc4c3c2c1 | 13

Now turn to the next compound.
Which remaining activity at 1 µM value is on record for COc1ccc2[nH]c3c(=O)[nH]c4ccc(NC(C)=O)cc4c3c2c1 ?
2
